# system: wildtype feline IL-31 (Feline_IL31_wildtype) (feline)
# Sequence (chain, as listed by the source limits assumed, form in doubt): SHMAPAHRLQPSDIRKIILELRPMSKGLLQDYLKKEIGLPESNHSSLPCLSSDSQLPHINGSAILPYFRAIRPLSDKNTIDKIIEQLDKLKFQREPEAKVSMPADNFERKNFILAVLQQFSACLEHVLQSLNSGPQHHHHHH
# testProtocol: SPR (Biacore), immobilised IL-31, 1:1 fit
Please respond with reported koff for every item in the list.
Provide the reading as a plain figure in s⁻¹.

Incoming: Quick check: koff of Feline 15H05 2.3 (antibody, V domains shown) VH: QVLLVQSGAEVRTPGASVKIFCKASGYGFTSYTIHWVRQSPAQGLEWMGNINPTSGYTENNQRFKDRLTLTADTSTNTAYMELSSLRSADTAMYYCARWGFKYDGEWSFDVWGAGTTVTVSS VL: EVVLTQSSAFLSRTLKEKATITCRASQGISIWLSWYQQKPNQAPKLLVKKASNLHIGAPSRFSGSGSGTDFTLTISSPEPEDAATYYCLQSQTYPLTFGGGTKLGDQ ?
Outgoing: 0.000535

Incoming: Quick check: koff of Feline 15H05 1.1_FW1_2 (antibody, V domains shown) VH: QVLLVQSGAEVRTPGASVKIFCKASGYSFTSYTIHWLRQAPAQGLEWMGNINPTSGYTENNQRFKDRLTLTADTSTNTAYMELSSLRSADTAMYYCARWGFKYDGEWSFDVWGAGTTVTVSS VL: DIQMNQSPSSLSASLGDTITVTCRASQGISIWLSWYQQKPGNIPKVLINKASNLHIGVPSRFSGSGSGTDFTLTISSLEPEDAATYYCLQSQTYPLTFGGGTKLEIK ?
Outgoing: 6.7e-06

Incoming: Quick check: koff of Feline 15H05 3.2 (antibody, V domains shown) VH: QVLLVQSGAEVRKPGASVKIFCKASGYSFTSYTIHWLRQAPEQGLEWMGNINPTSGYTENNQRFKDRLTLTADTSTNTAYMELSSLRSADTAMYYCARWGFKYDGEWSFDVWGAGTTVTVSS VL: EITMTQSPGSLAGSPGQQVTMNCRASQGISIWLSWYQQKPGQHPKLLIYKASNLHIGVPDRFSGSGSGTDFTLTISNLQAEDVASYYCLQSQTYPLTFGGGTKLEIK ?
Outgoing: 0.00166
